tested on: Staphylococcus aureus; experiment: Inhibitory activity against methicillin-sensitive staphylococcus aureus(MSSA); type: functional
The reader will find reported MIC values listed item by item below.
Kindly answer with a numeric value in µg/mL, unit omitted.

Completed entries (count: 3):
1) C[C@@H](O)[C@H]1C(=O)N2C(C(=O)[O-])=C(Sc3nc4ccccc4s3)C[C@H]12.[Na+]: 0.07
2) C[C@@H](O)[C@H]1C(=O)N2C(C(=O)[O-])=C(Sc3nc4cc(CO)ccc4s3)[C@H](C)[C@H]12.[Na+]: 0.07
3) C[C@@H](O)[C@H]1C(=O)N2C(C(=O)[O-])=C(Sc3nc4ccccc4o3)[C@H](C)[C@H]12.[Na+]: 0.23

Value of MIC reported for the compound C[C@@H](O)[C@H]1C(=O)N2C(C(=O)[O-])=C(Sc3nc4ccc([N+](=O)[O-])cc4s3)[C@H](C)[C@H]12.[Na+] is 0.05

====

Readings of pIC50 for the listed compounds
target: MecA (Staphylococcus aureus, UniProt Q7DHH4); experiment: Binding affinity towards Penicillin-binding protein 2a from homogeneous MRSA COL strain using [3H]-radioligand
Sequence (Q7DHH4 whole entry): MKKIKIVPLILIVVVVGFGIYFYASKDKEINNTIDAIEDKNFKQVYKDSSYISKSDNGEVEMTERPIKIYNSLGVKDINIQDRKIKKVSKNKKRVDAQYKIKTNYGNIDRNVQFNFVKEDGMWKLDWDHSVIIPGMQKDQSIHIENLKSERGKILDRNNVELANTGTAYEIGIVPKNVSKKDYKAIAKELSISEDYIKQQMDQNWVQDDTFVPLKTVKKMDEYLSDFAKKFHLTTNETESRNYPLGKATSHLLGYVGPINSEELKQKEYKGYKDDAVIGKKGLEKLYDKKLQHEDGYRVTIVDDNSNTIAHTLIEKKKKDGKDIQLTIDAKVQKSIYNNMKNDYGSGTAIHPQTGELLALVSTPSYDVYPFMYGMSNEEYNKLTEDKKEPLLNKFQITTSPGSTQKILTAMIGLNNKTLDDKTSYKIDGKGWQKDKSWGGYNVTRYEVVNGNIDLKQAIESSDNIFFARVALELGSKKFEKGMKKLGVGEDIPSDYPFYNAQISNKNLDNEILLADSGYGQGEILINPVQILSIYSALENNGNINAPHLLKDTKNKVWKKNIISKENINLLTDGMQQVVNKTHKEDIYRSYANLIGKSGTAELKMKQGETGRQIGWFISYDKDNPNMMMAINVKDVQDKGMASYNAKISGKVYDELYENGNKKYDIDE
Lab note — pIC50 values are minus log10 of concentrations in M.

Worked cases, pIC50 given:
1. C[C@@H](O)[C@H]1C(=O)N2C(C(=O)[O-])=C(Sc3nc4ccc([N+](=O)[O-])cc4s3)[C@H](C)[C@H]12.[Na+]: 5.87
2. C[C@@H](O)[C@H]1C(=O)N2C(C(=O)[O-])=C(Sc3nc4ccc(Cl)cc4s3)[C@H](C)[C@H]12.[Na+]: 5.68
3. COC(=O)c1cc2sc(SC3=C(C(=O)[O-])N4C(=O)[C@H]([C@@H](C)O)[C@H]4[C@H]3C)nc2o1.[Na+]: 5.47

Attention now shifts to the item below.
So for C[C@@H](O)[C@H]1C(=O)N2C(C(=O)[O-])=C(Sc3nc4cc(Cl)ccc4s3)[C@H](C)[C@H]12.[Na+] , the logged pIC50 turned out to be 5.21

====

system: Staphylococcus aureus; experiment: Inhibitory activity against methicillin-sensitive staphylococcus aureus(MSSA); type: functional
Endpoint: MIC (µg/mL)
Express the result in µg/mL but write the number alone.

Consider the following illustrative entries.
1. C[C@@H](O)[C@H]1C(=O)N2C(C(=O)[O-])=C(Sc3cc4ccccc4s3)[C@H](C)[C@H]12.[Na+]: 0.04
2. C[C@@H](O)[C@H]1C(=O)N2C(C(=O)[O-])=C(Sc3nc(-c4ccccc4)cs3)[C@H](C)[C@H]12.[Na+]: 0.05
3. C[C@@H](O)[C@H]1C(=O)N2C(C(=O)[O-])=C(Sc3nc4cc(Cl)ccc4s3)C[C@H]12.[Na+]: 0.02
4. COC(=O)c1cc2sc(SC3=C(C(=O)[O-])N4C(=O)[C@H]([C@@H](C)O)[C@H]4[C@H]3C)nc2o1.[Na+]: 0.02
5. C[C@@H](O)[C@H]1C(=O)N2C(C(=O)[O-])=C(Sc3nc4c(C[n+]5ccn(C)c5)csc4s3)C[C@H]12: 0.02
6. C[C@@H](O)[C@H]1C(=O)N2C(C(=O)[O-])=C(Sc3ccc4ccccc4n3)[C@H](C)[C@H]12.[Na+]: 0.05
7. COC(=O)c1csc2sc(SC3=C(C(=O)[O-])N4C(=O)[C@H]([C@@H](C)O)[C@H]4[C@H]3C)nc12.[Na+]: 0.04
8. C[C@@H](O)[C@H]1C(=O)N2C(C(=O)[O-])=C(Sc3nc4ccc(N)cc4s3)[C@H](C)[C@H]12.[Na+]: 0.09
9. C[C@@H](O)[C@H]1C(=O)N2C(C(=O)[O-])=C(Sc3nc4cc(C(F)(F)F)ccc4s3)[C@H](C)[C@H]12.[Na+]: 0.08

Memo: C[C@@H](O)[C@H]1C(=O)N2C(C(=O)[O-])=C(Sc3nccs3)[C@H](C)[C@H]12.[Na+] , reported MIC: 0.17
